Values from ChEMBL document CHEMBL2321783

- Assayed system: Melanocortin receptor 3 (Mus musculus)
- Sequence (P33033 whole entry): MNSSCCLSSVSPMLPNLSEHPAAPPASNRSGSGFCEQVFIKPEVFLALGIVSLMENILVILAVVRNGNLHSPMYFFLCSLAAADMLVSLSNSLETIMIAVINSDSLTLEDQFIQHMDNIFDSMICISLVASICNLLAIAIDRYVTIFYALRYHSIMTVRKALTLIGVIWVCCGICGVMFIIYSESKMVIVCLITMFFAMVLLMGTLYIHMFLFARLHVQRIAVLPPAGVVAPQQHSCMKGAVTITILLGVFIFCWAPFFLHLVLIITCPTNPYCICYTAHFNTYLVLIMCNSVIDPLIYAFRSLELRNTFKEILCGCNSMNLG
- Run description: Agonist activity at mouse MC3 receptor expressed in HEK293 cells after 6 hrs by cAMP-based beta-galactosidase reporter gene assay
Listing of entries alongside the reported pEC50.
Expect pEC50 as a plain number equal to -log10 of the molar concentration.

Example entries and their recorded answers appear below.
For record C[C@@H]1NC(=O)[C@H](CC(N)=O)NC(=O)[C@H](C)N2C[C@H](CCCNC(=N)N)NC(=O)[C@@H](CSCC2=O)NC(=O)[C@@H](Cc2ccccc2)NC(=O)[C@H](Cc2cnc[nH]2)NC(=O)[C@@H](NC(=O)[C@@H](N)Cc2ccc(O)cc2)CSSC[C@@H](C(=O)N[C@@H](Cc2ccc(O)cc2)C(N)=O)NC(=O)[C@H](Cc2ccccc2)NC1=O the listed pEC50 is 5.65

For record C[C@@H]1NC(=O)[C@H](CC(N)=O)NC(=O)[C@H](Cc2c[nH]c3ccccc23)N2C[C@H](CCCCN)NC(=O)[C@@H](CSCC2=O)NC(=O)[C@@H](Cc2ccccc2)NC(=O)[C@H](Cc2cnc[nH]2)NC(=O)[C@@H](NC(=O)[C@@H](N)Cc2ccc(O)cc2)CSSC[C@@H](C(=O)N[C@@H](Cc2ccc(O)cc2)C(N)=O)NC(=O)[C@H](Cc2ccccc2)NC1=O the listed pEC50 is 5.60

For record C[C@@H]1NC(=O)[C@H](Cc2cnc[nH]2)NC(=O)[C@@H](NC(=O)[C@@H](N)Cc2ccc(O)cc2)CSSC[C@@H](C(=O)N[C@@H](Cc2ccc(O)cc2)C(N)=O)NC(=O)[C@H](Cc2ccccc2)NC(=O)[C@H](C)NC(=O)[C@H](CC(N)=O)NC(=O)[C@H](Cc2c[nH]c3ccccc23)N2C[C@H](CCCN=C(N)N)NC(=O)[C@@H](CSCC2=O)NC1=O the listed pEC50 is 5.11

Please turn your attention to the following entry.
For record C[C@@H]1NC(=O)[C@H](CC(N)=O)NC(=O)[C@H](Cc2c[nH]c3ccccc23)N2C[C@H](CCCNC(=N)N)NC(=O)[C@@H](CSCC2=O)NC(=O)[C@@H](Cc2ccccc2)NC(=O)[C@@H]2CCCN2C(=O)[C@@H](NC(=O)[C@@H](N)Cc2ccc(O)cc2)CSSC[C@@H](C(=O)N[C@@H](Cc2ccc(O)cc2)C(N)=O)NC(=O)[C@H](Cc2ccccc2)NC1=O the listed pEC50 is 5.72

====

Listing of entries alongside the reported pEC50.
- Assayed system: Melanocortin receptor 5 (Mus musculus)
- Sequence (P41149 whole entry): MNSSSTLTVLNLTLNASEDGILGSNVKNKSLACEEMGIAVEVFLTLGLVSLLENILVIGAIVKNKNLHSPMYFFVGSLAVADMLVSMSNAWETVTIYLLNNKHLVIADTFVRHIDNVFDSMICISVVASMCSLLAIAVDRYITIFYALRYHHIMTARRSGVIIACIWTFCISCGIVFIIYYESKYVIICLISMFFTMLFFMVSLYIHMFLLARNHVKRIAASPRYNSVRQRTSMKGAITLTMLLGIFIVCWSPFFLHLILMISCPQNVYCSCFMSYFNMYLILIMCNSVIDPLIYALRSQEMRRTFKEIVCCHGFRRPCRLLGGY
- Run description: Agonist activity at mouse MC5 receptor expressed in HEK293 cells after 6 hrs by cAMP-based beta-galactosidase reporter gene assay
- Format: functional, cell-based
- Measurement setup: hek293
Expect pEC50 as a plain number equal to -log10 of the molar concentration.

Field pEC50 (Melanocortin receptor 5 (Mus musculus)), entry C[C@@H]1NC(=O)[C@H](CC(N)=O)NC(=O)[C@H](Cc2c[nH]c3ccccc23)N2C[C@H](CCCCN)NC(=O)[C@H](CSCC2=O)NC(=O)[C@@H](Cc2ccccc2)NC(=O)[C@H](Cc2c[nH]cn2)NC(=O)[C@@H](NC(=O)[C@@H](N)Cc2ccc(O)cc2)CSSC[C@@H](C(=O)N[C@@H](Cc2ccc(O)cc2)C(N)=O)NC(=O)[C@H](Cc2ccccc2)NC1=O : 6.34

Field pEC50 (Melanocortin receptor 5 (Mus musculus)), entry C[C@@H]1NC(=O)[C@H](CC(N)=O)NC(=O)[C@H](Cc2c[nH]c3ccccc23)N2C[C@H](CCCCNC(=N)N)NC(=O)[C@H](CSCC2=O)NC(=O)[C@@H](Cc2ccccc2)NC(=O)[C@H](Cc2c[nH]cn2)NC(=O)[C@@H](NC(=O)[C@@H](N)Cc2ccc(O)cc2)CSSC[C@@H](C(=O)N[C@@H](Cc2ccc(O)cc2)C(N)=O)NC(=O)[C@H](Cc2ccccc2)NC1=O : 6.46

Field pEC50 (Melanocortin receptor 5 (Mus musculus)), entry C[C@@H]1NC(=O)[C@H](CC(N)=O)NC(=O)[C@H](Cc2c[nH]c3ccccc23)N2C[C@H](CCCN=C(N)N)NC(=O)[C@H](CSCC2=O)NC(=O)[C@@H](Cc2ccccc2)NC(=O)[C@H](Cc2cnc[nH]2)NC(=O)[C@@H](NC(=O)[C@@H](N)Cc2ccc(O)cc2)CSSC[C@@H](C(=O)N[C@@H](Cc2ccc(O)cc2)C(N)=O)NC(=O)[C@H](Cc2ccccc2)NC1=O : 7.34

Field pEC50 (Melanocortin receptor 5 (Mus musculus)), entry C[C@@H]1NC(=O)[C@H](CC(N)=O)NC(=O)[C@H](Cc2c[nH]c3ccccc23)N2C[C@H](CCCNC(=N)N)NC(=O)[C@H](CSCC2=O)NC(=O)[C@@H]2CCCN2C(=O)[C@H](Cc2c[nH]cn2)NC(=O)[C@@H](NC(=O)[C@@H](N)Cc2ccc(O)cc2)CSSC[C@@H](C(=O)N[C@@H](Cc2ccc(O)cc2)C(N)=O)NC(=O)[C@H](Cc2ccccc2)NC1=O : 5.96

Field pEC50 (Melanocortin receptor 5 (Mus musculus)), entry C[C@@H]1NC(=O)[C@H](CC(N)=O)NC(=O)[C@H](C)N2C[C@H](CCCNC(=N)N)NC(=O)[C@H](CSCC2=O)NC(=O)[C@@H](Cc2ccccc2)NC(=O)[C@H](Cc2c[nH]cn2)NC(=O)[C@@H](NC(=O)[C@@H](N)Cc2ccc(O)cc2)CSSC[C@@H](C(=O)N[C@@H](Cc2ccc(O)cc2)C(N)=O)NC(=O)[C@H](Cc2ccccc2)NC1=O : 6.90

Please turn your attention to the following entry.
Field pEC50 (Melanocortin receptor 5 (Mus musculus)), entry C[C@@H]1NC(=O)[C@H](CC(N)=O)NC(=O)[C@H](Cc2ccc(-c3ccccc3)cc2)N2C[C@H](CCCNC(=N)N)NC(=O)[C@H](CSCC2=O)NC(=O)[C@@H](Cc2ccccc2)NC(=O)[C@H](Cc2c[nH]cn2)NC(=O)[C@@H](NC(=O)[C@@H](N)Cc2ccc(O)cc2)CSSC[C@@H](C(=O)N[C@@H](Cc2ccc(O)cc2)C(N)=O)NC(=O)[C@H](Cc2ccccc2)NC1=O : 6.08

====

- Assayed system: Melanocortin receptor 3 (Mus musculus)
- Run description: Agonist activity at mouse MC3 receptor expressed in HEK293 cells after 6 hrs by cAMP-based beta-galactosidase reporter gene assay
Listing of entries alongside the reported EC50.
Express it in nM; write the number only.

Example entries and their recorded answers appear below.
For record C[C@@H]1NC(=O)[C@H](CC(N)=O)NC(=O)[C@H](Cc2c[nH]c3ccccc23)N2C[C@H](CCCNC(=N)N)NC(=O)[C@@H](CSCC2=O)NC(=O)[C@@H](Cc2ccc(I)cc2)NC(=O)[C@H](Cc2cnc[nH]2)NC(=O)[C@@H](NC(=O)[C@@H](N)Cc2ccc(O)cc2)CSSC[C@@H](C(=O)N[C@@H](Cc2ccc(O)cc2)C(N)=O)NC(=O)[C@H](Cc2ccccc2)NC1=O the listed EC50 is 49

For record C[C@@H]1NC(=O)[C@H](CC(N)=O)NC(=O)[C@H](Cc2c[nH]c3ccccc23)N2C[C@H](CCCNC(=N)N)NC(=O)[C@@H](CSCC2=O)NC(=O)[C@@H](Cc2ccccc2)NC(=O)[C@H](Cc2ccccc2)NC(=O)[C@@H](NC(=O)[C@@H](N)Cc2ccc(O)cc2)CSSC[C@@H](C(=O)N[C@@H](Cc2ccc(O)cc2)C(N)=O)NC(=O)[C@H](Cc2ccccc2)NC1=O the listed EC50 is 4500

For record C[C@@H]1NC(=O)[C@H](CC(N)=O)NC(=O)[C@H](Cc2c[nH]c3ccccc23)N2C[C@H](C)NC(=O)[C@@H](CSCC2=O)NC(=O)[C@@H](Cc2ccccc2)NC(=O)[C@H](Cc2cnc[nH]2)NC(=O)[C@@H](NC(=O)[C@@H](N)Cc2ccc(O)cc2)CSSC[C@@H](C(=O)N[C@@H](Cc2ccc(O)cc2)C(N)=O)NC(=O)[C@H](Cc2ccccc2)NC1=O the listed EC50 is 8070

For record C[C@@H]1NC(=O)[C@H](CC(N)=O)NC(=O)[C@H](Cc2c[nH]c3ccccc23)N2C[C@H](CCCCNC(=N)N)NC(=O)[C@@H](CSCC2=O)NC(=O)[C@@H](Cc2ccccc2)NC(=O)[C@H](Cc2cnc[nH]2)NC(=O)[C@@H](NC(=O)[C@@H](N)Cc2ccc(O)cc2)CSSC[C@@H](C(=O)N[C@@H](Cc2ccc(O)cc2)C(N)=O)NC(=O)[C@H](Cc2ccccc2)NC1=O the listed EC50 is 1830

For record C[C@@H]1NC(=O)[C@H](CC(N)=O)NC(=O)[C@@H](Cc2ccc3ccccc3c2)N2C[C@H](CCCNC(=N)N)NC(=O)[C@@H](CSCC2=O)NC(=O)[C@@H](Cc2ccccc2)NC(=O)[C@H](Cc2cnc[nH]2)NC(=O)[C@@H](NC(=O)[C@@H](N)Cc2ccc(O)cc2)CSSC[C@@H](C(=O)N[C@@H](Cc2ccc(O)cc2)C(N)=O)NC(=O)[C@H](Cc2ccccc2)NC1=O the listed EC50 is 180

***
For record C[C@@H]1NC(=O)[C@H](CC(N)=O)NC(=O)[C@H](Cc2ccc(-c3ccccc3)cc2)N2C[C@H](CCCN=C(N)N)NC(=O)[C@@H](CSCC2=O)NC(=O)[C@@H](Cc2ccccc2)NC(=O)[C@H](Cc2cnc[nH]2)NC(=O)[C@@H](NC(=O)[C@@H](N)Cc2ccc(O)cc2)CSSC[C@@H](C(=O)N[C@@H](Cc2ccc(O)cc2)C(N)=O)NC(=O)[C@H](Cc2ccccc2)NC1=O the listed EC50 is 230
